Listed here are molecules together with their documented IC50.
- SYSTEM_UNDER_TEST: Human PD-L1/PD-1 (Homo sapiens, UniProt Q9NZQ7)
- Construct: TVMV protease cleavage site (C); made in house; host or cells: HEK293T cells
- Sequence (Q9NZQ7 with tags, fused parts or gaps): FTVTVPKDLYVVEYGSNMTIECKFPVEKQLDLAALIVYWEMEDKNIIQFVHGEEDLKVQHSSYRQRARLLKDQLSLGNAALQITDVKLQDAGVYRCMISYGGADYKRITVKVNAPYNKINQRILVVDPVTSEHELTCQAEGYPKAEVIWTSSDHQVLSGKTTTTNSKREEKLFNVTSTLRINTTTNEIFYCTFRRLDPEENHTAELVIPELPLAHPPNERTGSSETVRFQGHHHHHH
- ASSAY: HTRF Human PD-L1/PD-1 binding assay (PD-1-Ig/PD-L1-His)
- EXPERIMENTAL_SETUP: PD-L1-His 10 nM, PD-1-Ig 20 nM; class symbol; read-out: HTRF Human PD-L1/PD-1 Binding Assay IC50 Range
Where a SMILES comes first, the peptide text is derived from it. Bridges are numbered along the chain shown (N, C = ends). [ ]: non-standard residue; d: D form. Phe(4-F) = N[C@@H](Cc1ccc(F)cc1)C(=O)O; NMeF = CN[C@@H](Cc1ccccc1)C(=O)O; NMeL = CN[C@@H](CC(C)C)C(=O)O; NMeNle = CCCC[C@H](NC)C(=O)O; Orn = NCCC[C@H](N)C(=O)O; Sar = CNCC(=O)O
READOUT_NAME: IC50

1) CCCC[C@H]1C(=O)N2CCC[C@@H]2C(=O)N[C@@H](CC(=O)O)C(=O)N[C@@H](C(C)C)C(=O)N(C)[C@@H](CC(C)C)C(=O)N[C@@H](CCC(N)=O)C(=O)N2CCC[C@@H]2C(=O)N[C@@H](Cc2c[nH]c3ccccc23)C(=O)N[C@@H](Cc2ccc(O)cc2)C(=O)N[C@@H](CCCN)C(=O)N[C@H](C(=O)NCC(N)=O)CSCC(=O)N[C@@H](Cc2ccc(F)cc2)C(=O)N(C)[C@@H](Cc2ccccc2)C(=O)N1C [Example 9255] ({CH2CO}-[Phe(4-F)][NMeF][NMeNle][dP]DV[NMeL]Q[dP]WY[Orn]CG-NH2; thioether N-13) | 1 to 10 µM
2) CCCC[C@H]1C(=O)N2CCC[C@@H]2C(=O)N[C@@H](CC(=O)O)C(=O)N[C@@H](C)C(=O)N(C)[C@@H](Cc2ccccc2)C(=O)N[C@@H](Cc2ccc(O)cc2)C(=O)N(C)CC(=O)N[C@@H](Cc2c[nH]c3ccccc23)C(=O)N[C@@H](Cc2ccc(O)cc2)C(=O)N[C@@H](CC(C)C)C(=O)N[C@H](C(=O)NCC(N)=O)CSCC(=O)N[C@@H](Cc2ccccc2)C(=O)N(C)[C@@H](Cc2ccccc2)C(=O)N1C [Example 10044] ({CH2CO}-F[NMeF][NMeNle][dP]DA[NMeF]Y[Sar]WYLCG-NH2; thioether N-13) | 0.01 to 0.0999 µM

* * *

- SYSTEM_UNDER_TEST: Human PD-L1/PD-1 (Homo sapiens)
- Construct: TVMV protease cleavage site (C); made in house; host or cells: HEK293T cells
- ASSAY: HTRF Human PD-L1/PD-1 binding assay (PD-1-Ig/PD-L1-His)
- EXPERIMENTAL_SETUP: PD-L1-His 10 nM, PD-1-Ig 20 nM; class symbol; read-out: HTRF Human PD-L1/PD-1 Binding Assay IC50 Range
Where a SMILES comes first, the peptide text is derived from it. Bridges are numbered along the chain shown (N, C = ends). [ ]: non-standard residue; d: D form. Phe(3,4-Cl2) = N[C@@H](Cc1ccc(Cl)c(Cl)c1)C(=O)O; Hyp = O=C(O)[C@@H]1C[C@@H](O)CN1; NMeF = CN[C@@H](Cc1ccccc1)C(=O)O; NMeNle = CCCC[C@H](NC)C(=O)O; NMeA = CN[C@@H](C)C(=O)O; dThz = O=C(O)[C@H]1CSCN1; Dab = NCC[C@H](N)C(=O)O; Sar = CNCC(=O)O
READOUT_NAME: IC50

1) CCCC[C@H]1C(=O)N2CCC[C@@H]2C(=O)N[C@@H](CO)C(=O)N[C@@H](C(C)C)C(=O)N(C)[C@@H](Cc2ccccc2)C(=O)N[C@@H](Cc2ccc(O)cc2)C(=O)N2CSC[C@@H]2C(=O)N[C@@H](Cc2c[nH]c3ccccc23)C(=O)N[C@@H](Cc2ccc(O)cc2)C(=O)N[C@@H](CC(C)C)C(=O)N[C@H](C(=O)NCC(N)=O)CSCC(=O)N[C@@H](Cc2ccccc2)C(=O)N(C)[C@@H](Cc2ccccc2)C(=O)N1C [Example 10070] ({CH2CO}-F[NMeF][NMeNle][dP]SV[NMeF]Y[dThz]WYLCG-NH2; thioether N-13) | 10 to 99.9 nM
2) CCCC[C@H]1C(=O)N2CCC[C@@H]2C(=O)N[C@@H](CC(=O)O)C(=O)N[C@@H](C)C(=O)N(C)[C@@H](Cc2ccccc2)C(=O)N[C@@H](Cc2ccc(O)cc2)C(=O)N2CSC[C@@H]2C(=O)N[C@@H](Cc2c[nH]c3ccccc23)C(=O)N[C@@H](Cc2ccc(O)cc2)C(=O)N[C@@H](CC(C)C)C(=O)N[C@H](C(=O)NCC(N)=O)CSCC(=O)N[C@@H](Cc2ccccc2)C(=O)N(C)[C@@H](Cc2ccccc2)C(=O)N1C [Example 10088] ({CH2CO}-F[NMeF][NMeNle][dP]DA[NMeF]Y[dThz]WYLCG-NH2; thioether N-13) | 10 to 99.9 nM
3) CCCC[C@H]1C(=O)N(C)[C@@H](CCCC)C(=O)N[C@@H](CCC(=O)O)C(=O)N[C@H](C(=O)NCC(N)=O)CSCC(=O)N[C@@H](Cc2ccc(O)cc2)C(=O)N(C)[C@@H](C)C(=O)N[C@@H](CC(N)=O)C(=O)N2CCC[C@H]2C(=O)N[C@@H](CO)C(=O)N[C@@H](CCC(=O)O)C(=O)N2C[C@H](O)C[C@H]2C(=O)N[C@@H](Cc2c[nH]c3ccccc23)C(=O)N[C@@H](CCN)C(=O)N[C@@H](Cc2c[nH]c3ccccc23)C(=O)N1C [Example 5167] ({CH2CO}-Y[NMeA]NPSE[Hyp]W[Dab]W[NMeNle][NMeNle]ECG-NH2; thioether N-14) | 1 to 9.9 nM
4) CCCC[C@H]1C(=O)N(C)CC(=O)N[C@@H](CC(=O)O)C(=O)N[C@@H](C(C)C)C(=O)N(C)[C@@H](Cc2ccccc2)C(=O)N[C@@H](Cc2ccc(O)cc2)C(=O)N(C)CC(=O)N[C@@H](Cc2c[nH]c3ccccc23)C(=O)N[C@@H](Cc2ccc(O)cc2)C(=O)N[C@@H](CC(C)C)C(=O)N[C@H](C(=O)NCC(N)=O)CSCC(=O)N[C@@H](Cc2ccc(Cl)c(Cl)c2)C(=O)N(C)[C@@H](Cc2ccccc2)C(=O)N1C [Example 3246] ({CH2CO}-[Phe(3,4-Cl2)][NMeF][NMeNle][Sar]DV[NMeF]Y[Sar]WYLCG-NH2; thioether N-13) | 10 to 99.9 nM

* * *

Measured pIC50 by item
- SYSTEM_UNDER_TEST: Human PD-L1/PD-1 (Homo sapiens, UniProt Q9NZQ7)
- Construct: TVMV protease cleavage site (C); made in house; host or cells: HEK293T cells
- ASSAY: HTRF Human PD-L1/PD-1 binding assay (PD-1-Ig/PD-L1-His)
- EXPERIMENTAL_SETUP: PD-L1-His 10 nM, PD-1-Ig 20 nM; class symbol; read-out: HTRF Human PD-L1/PD-1 Binding Assay IC50 Range
pIC50: −log10 of the molar value. Where a SMILES comes first, the peptide text is derived from it. Bridges are numbered along the chain shown (N, C = ends). [ ]: non-standard residue; d: D form. ξ: configuration not given here. Phe(4-F) = N[C@@H](Cc1ccc(F)cc1)C(=O)O; Bta = N[C@@H](Cc1csc2ccccc12)C(=O)O; Hyp = O=C(O)[C@@H]1C[C@@H](O)CN1; NMeF = CN[C@@H](Cc1ccccc1)C(=O)O; NMeNle = CCCC[C@H](NC)C(=O)O; NMeV = CN[C@H](C(=O)O)C(C)C; Pip = O=C(O)[C@@H]1CCCCN1; dPip = O=C(O)[C@H]1CCCCN1; NMeA = CN[C@@H](C)C(=O)O; Orn = NCCC[C@H](N)C(=O)O; Dap = NC[C@H](N)C(=O)O; ξC = NC(CS)C(=O)O
READOUT_NAME: pIC50

1) CCCC[C@H]1C(=O)N(C)[C@@H](CCCC)C(=O)N[C@@H](CC(=O)O)C(=O)N[C@H](C(=O)NCC(N)=O)CSCC(=O)N[C@@H](Cc2ccc(O)cc2)C(=O)N2CCCCC2C(=O)N[C@@H](CC(=O)O)C(=O)N2CCC[C@H]2C(=O)N[C@@H](Cc2c[nH]cn2)C(=O)N[C@@H](CCCN)C(=O)N2C[C@H](O)C[C@H]2C(=O)N[C@@H](Cc2c[nH]c3ccccc23)C(=O)N[C@@H](CCCN)C(=O)N[C@@H](Cc2csc3ccccc23)C(=O)N1C (stereo partly shown) [Example 1533] | 8.00 to 9.00
2) CCCC[C@H]1C(=O)N2CCC[C@@H]2C(=O)N[C@@H](CC(=O)O)C(=O)N[C@@H](C(C)C)C(=O)N(C)[C@@H](C(C)C)C(=O)N[C@@H](Cc2ccc(O)cc2)C(=O)N2CCCC[C@@H]2C(=O)N[C@@H](Cc2c[nH]c3ccccc23)C(=O)N[C@@H](Cc2ccc(O)cc2)C(=O)N[C@@H](CCCN)C(=O)N[C@H](C(=O)NCC(N)=O)CSCC(=O)N[C@@H](Cc2ccc(F)cc2)C(=O)N(C)[C@@H](Cc2ccccc2)C(=O)N1C [Example 9244] ({CH2CO}-[Phe(4-F)][NMeF][NMeNle][dP]DV[NMeV]Y[dPip]WY[Orn]CG-NH2; thioether N-13) | 5.00 to 6.00
3) CCCC[C@H]1C(=O)N(C)[C@@H](CCCC)C(=O)N[C@@H](CCCNC(=N)N)C(=O)NC(C(=O)NCC(N)=O)CSCC(=O)N[C@@H](Cc2ccc(O)cc2)C(=O)N(C)[C@@H](C)C(=O)N[C@@H](Cc2cnc[nH]2)C(=O)N2CCC[C@H]2C(=O)N[C@@H](CC(N)=O)C(=O)N[C@@H](CC(C)C)C(=O)N2CCC[C@H]2C(=O)N[C@@H](Cc2c[nH]c3ccccc23)C(=O)N[C@@H](CO)C(=O)N[C@@H](Cc2c[nH]c3ccccc23)C(=O)N1C (stereo partly shown) [Example 9144] ({CH2CO}-Y[NMeA]HPNLPWSW[NMeNle][NMeNle]R[ξC]G-NH2; thioether N-14) | 8.00 to 9.00
4) CCCC[C@H]1C(=O)N(C)[C@@H](CCCC)C(=O)N[C@@H](C)C(=O)N[C@H](C(=O)NCC(N)=O)CSCC(=O)N[C@@H](Cc2ccc(O)cc2)C(=O)N2CCCC[C@H]2C(=O)N[C@@H](CC(=O)O)C(=O)N2CCC[C@H]2C(=O)N[C@@H](CN)C(=O)N[C@@H](CCC(N)=O)C(=O)N2C[C@H](O)C[C@H]2C(=O)N[C@@H](Cc2c[nH]c3ccccc23)C(=O)N[C@@H](CO)C(=O)N[C@@H](Cc2csc3ccccc23)C(=O)N1C [Example 1507] ({CH2CO}-Y[Pip]DP[Dap]Q[Hyp]WS[Bta][NMeNle][NMeNle]ACG-NH2; thioether N-14) | 8.00 to 9.00
